Experiment: activity coefficient (dimensionless); of the first substance listed, at infinite dilution; xn = mol fraction of the nth substance listed
Details: 318.15 K; Liquid; Chromatography; x1 = 0
Please go through the items and note down their activity coefficient.
// no unit string in output, number only

Identify activity coefficient associated with the molecule CCCCC [pentane] + CC(CC(C)(C)C)CP(=O)([O-])CC(C)CC(C)(C)C.CCCCCCCCCCCCCC[P+](CCCCCC)(CCCCCC)CCCCCC
0.71

Identify activity coefficient associated with the molecule C=CCCCCCC [oct-1-ene] + CC(CC(C)(C)C)CP(=O)([O-])CC(C)CC(C)(C)C.CCCCCCCCCCCCCC[P+](CCCCCC)(CCCCCC)CCCCCC
0.81

Identify activity coefficient associated with the molecule C#CCCCC [1-hexyne] + CC(CC(C)(C)C)CP(=O)([O-])CC(C)CC(C)(C)C.CCCCCCCCCCCCCC[P+](CCCCCC)(CCCCCC)CCCCCC
0.46

---

Please go through the items and note down their activity coefficient.
Assay: activity coefficient (dimensionless); of the first substance listed, at infinite dilution; xn = mol fraction of the nth substance listed
Details: 308.15 K; Liquid; Chromatography; x1 = 0
// no unit string in output, number only

Identify activity coefficient associated with the compound CCCCC [pentane] + CC(CC(C)(C)C)CP(=O)([O-])CC(C)CC(C)(C)C.CCCCCCCCCCCCCC[P+](CCCCCC)(CCCCCC)CCCCCC
0.69

Identify activity coefficient associated with the compound C1CCCC1 [cyclopentane] + CC(CC(C)(C)C)CP(=O)([O-])CC(C)CC(C)(C)C.CCCCCCCCCCCCCC[P+](CCCCCC)(CCCCCC)CCCCCC
0.46

Identify activity coefficient associated with the compound C1CCCCCC1 [cycloheptane] + CC(CC(C)(C)C)CP(=O)([O-])CC(C)CC(C)(C)C.CCCCCCCCCCCCCC[P+](CCCCCC)(CCCCCC)CCCCCC
0.56

---

Test: activity coefficient (dimensionless); of the first substance listed, at infinite dilution; xn = mol fraction of the nth substance listed
Settings: 318.15 K; Liquid; Chromatography; x1 = 0
Measurement Label: activity coefficient
// no unit string in output, number only

Identify activity coefficient associated with the compound c1ccccc1 [benzene] + CC(CC(C)(C)C)CP(=O)([O-])CC(C)CC(C)(C)C.CCCCCCCCCCCCCC[P+](CCCCCC)(CCCCCC)CCCCCC
0.49

Identify activity coefficient associated with the compound C=CCCC [1-pentene] + CC(CC(C)(C)C)CP(=O)([O-])CC(C)CC(C)(C)C.CCCCCCCCCCCCCC[P+](CCCCCC)(CCCCCC)CCCCCC
0.64

Identify activity coefficient associated with the compound C=CCCCC [hex-1-ene] + CC(CC(C)(C)C)CP(=O)([O-])CC(C)CC(C)(C)C.CCCCCCCCCCCCCC[P+](CCCCCC)(CCCCCC)CCCCCC
0.7

Identify activity coefficient associated with the compound CCCCCC [hexane] + CC(CC(C)(C)C)CP(=O)([O-])CC(C)CC(C)(C)C.CCCCCCCCCCCCCC[P+](CCCCCC)(CCCCCC)CCCCCC
0.75

Identify activity coefficient associated with the compound C1CCCCCC1 [cycloheptane] + CC(CC(C)(C)C)CP(=O)([O-])CC(C)CC(C)(C)C.CCCCCCCCCCCCCC[P+](CCCCCC)(CCCCCC)CCCCCC
0.6

Identify activity coefficient associated with the compound C#CCCCCCC [1-octyne] + CC(CC(C)(C)C)CP(=O)([O-])CC(C)CC(C)(C)C.CCCCCCCCCCCCCC[P+](CCCCCC)(CCCCCC)CCCCCC
0.39
